# Tested on: NCI-H522
# assay info: NCI tumour cell line growth inhibition, 48 h
The source made the active and inactive calls. No stated cut-off is given here; in the data, active = GI50 up to about 1.1 µM and inactive = higher.
Select the correct class. Options are y for active, n for inactive and nothing else.

Consider the worked cases shown below.
CCOC(=O)c1c(CN2CCCC2)n(-c2ccccc2)c2cc(Br)c(OC)cc12 : n
Cc1cc(C)nc(NS(=O)(=O)c2ccc(Nc3c4ccccc4nc4c(C(=O)NCCN(C)C)cccc34)cc2)n1 : y
CC(=O)c1cccc(Nc2nc3ccc(Cl)cc3c3[nH]c4ccccc4c23)c1 : n
O=CN1CCN(C=S)CC1 : n
CCNC(=O)O/N=C1\CCC2[C@@H]3CC=C4C[C@@H](OC5CCCCO5)CC[C@]4(C)C3CC[C@]12C (some centres undefined) : n
S=C1NCCN1C(=S)NC1CCCCC1 : n
Cc1cccc(C)c1NC(=O)CCc1nnc2s/c(=C\c3ccc(Cl)cc3)c(=O)n12 : n
N=C(N)SCCSC(=N)N : n

Now consider the entry below.
**Q:** Any idea what this test logged for CC(=O)OCC1OC(N2C(c3ccccc3)=CC(c3ccccc3)C(C#N)=C2S)C(OC(C)=O)C(OC(C)=O)C1OC(C)=O (centres undefined) ?
**A:** n

---

GI50 reference
# Test system: MDA-MB-231
# assay info: NCI tumour cell line growth inhibition, 48 h
Active and inactive are the calls of the source. No stated cut-off is given here; in the data, active = GI50 up to about 1.1 µM and inactive = higher.

Below, 4 compounds whose answers are already recorded.
CCSC1=CC2(O)N(CCc3ccc(OC)c(OC)c3)C(=O)CC2(C(=O)OC)CC1=O (configuration not stated) : 18.3 µM (inactive)
CC[C@]1(O)CC(OC2CC(N(C)C)C(O)C(C)O2)c2c(cc3c(c2O)C(=O)c2c(O)cccc2C3=O)[C@@H]1C(=O)OC (some centres not stated) : 0.351 µM (active)
C=CCn1c(-c2ccc(/N=N/Nc3ccc(-c4n[nH]c(=S)n4CC=C)cc3)cc2)n[nH]c1=S : 22 µM (inactive)
CC(=O)c1ccc2c3c1O[C@H]1c4[nH]c5ccccc5c4C[C@@]4(O)[C@@H](C2)N(CC2CC2)CC[C@]314 : 12.8 µM (inactive)

**Q:** So what does the record say about GI50 for S=C(N1CCN(c2cccc(Cl)c2)CC1)N1CCN(c2cccc(Cl)c2)CC1 ?
**A:** 11 µM (inactive)

**Q:** How about this compound: CCOC(=O)COc1ccc2c(C)cc(=O)oc2c1
**A:** > 100 µM (inactive)

**Q:** How about this compound: Oc1cc(O)cc(-c2nc3cc(F)ccc3s2)c1
**A:** 25.6 µM (inactive)

---

GI50 reference
# System: Malme-3M
# assay info: NCI tumour cell line growth inhibition, 48 h
The source made the active and inactive calls. Rule as the data show it: active = GI50 up to about 1.1 µM and inactive = higher.

Below, 5 molecules whose answers are already recorded.
COC1CC(n2cc(F)c(N)nc2=O)OC1CO (centres undefined) : > 100 µM (inactive)
COc1ccc(NC(=O)CC2S/C(=N\c3ccccc3C)NC2=O)c([N+](=O)[O-])c1 (centres undefined) : > 100 µM (inactive)
O=C1C(Cl)=C(NCCN2CCOCC2)C(=O)c2ncccc21 : 1.71 µM (inactive)
O=c1c2ccccc2[nH]c(=S)n1-c1ccc(Br)cc1 : > 100 µM (inactive)
COc1cc2c(cc1O)NC(=O)[C@@H]1CCCN1C2=O : > 100 µM (inactive)

**Q:** So what does the record say about GI50 for CCCCCC[C@@H]1CCC2C(CO)[C@@H](O)CC[C@@H]2C1 (some centres undefined) ?
**A:** 18.8 µM (inactive)

**Q:** How about this molecule: CN(Cc1cccc2ccsc12)/N=C\c1ccc(Cl)cc1
**A:** > 100 µM (inactive)

**Q:** How about this molecule: c1ccc(P(CCP(CCP(c2ccccc2)c2ccccc2)c2ccccc2)CCP(c2ccccc2)c2ccccc2)cc1 (centres undefined)
**A:** > 10 µM (inactive)

**Q:** How about this molecule: S=C1NCCN1C(=S)NC1CCCCC1
**A:** 20.8 µM (inactive)

**Q:** How about this molecule: NC1CC(=O)c2c(I)sc(I)c21 (centres undefined)
**A:** 13.7 µM (inactive)

**Q:** How about this molecule: CC(C)(C)c1ccc2c(c1)OP1(Oc3c(Cl)cc(Cl)c4cccnc34)(O2)Oc2ccc(C(C)(C)C)cc2O1
**A:** 10.8 µM (inactive)

---

# Test system: A549
# assay info: NCI tumour cell line growth inhibition, 48 h
Active and inactive are the calls of the source. No stated cut-off is given here; in the data, active = GI50 up to about 1.1 µM and inactive = higher.
Select the correct class. Options are active, inactive and nothing else.

Consider the worked cases shown below.
CN1CCN(CC(=O)N2CCCn3c2nc2ccccc2c3=O)CC1 : inactive
CC(=O)O[C@H]1CC[C@@]2(C)C(=CC[C@H]3C(CC#N)[C@@](C)(C#N)CCC32)C1 (stereo not given in full) : inactive
Cc1ccc([N+](=O)[O-])cc1NC(=O)/C(CC(=O)c1sc(C(N)=S)nc1C)=N\N : inactive
CCCC(=O)Nc1cc(/C=C/C(=O)N2C[C@@H]3C[C@]34C2=CC(=O)c2[nH]cc(C)c24)n(C)c1 : active
O=C(Cc1ccccc1)N/N=C(/c1nc2ccc([N+](=O)[O-])cc2nc1O)C(O)c1ccc(C(O)/C(=N/NC(=O)Cc2ccccc2)c2nc3ccc([N+](=O)[O-])cc3nc2O)cc1 (stereo not given) : inactive

Now consider the entry below.
**Q:** Any idea what this test logged for NC(=S)C1=C(N)Oc2c(c(=O)oc3ccccc23)C1c1ccc(Br)cc1 (stereo not given) ?
**A:** inactive

---

# Tested on: M14
# assay info: NCI tumour cell line growth inhibition, 48 h
The source made the active and inactive calls. No stated cut-off is given here; in the data, active = GI50 up to about 1.1 µM and inactive = higher.
measurement name: GI50

Below, 3 compounds whose answers are already recorded.
NC1CC(=O)c2c(I)sc(I)c21 (stereo not drawn) : 27.2 µM (inactive)
Cc1c(-c2ccccc2)c(=O)oc2ccc(Cl)cc12 : 26.7 µM (inactive)
Nc1nc(=O)n(C2CC(O)C(CO)O2)c2nc(-c3ccc(-c4ccccc4)cc3)cnc12 (stereo not drawn) : > 100 µM (inactive)

**Q:** So what does the record say about GI50 for O=C(Cc1ccccc1)N/N=C(/c1nc2ccc([N+](=O)[O-])cc2nc1O)C(O)c1ccc(C(O)/C(=N/NC(=O)Cc2ccccc2)c2nc3ccc([N+](=O)[O-])cc3nc2O)cc1 (stereo not drawn) ?
**A:** 40.6 µM (inactive)

**Q:** How about this compound: C=CC(C)(C)C(=C)C(=O)Nc1ccccc1I
**A:** > 100 µM (inactive)

**Q:** How about this compound: O=C1C(Cl)=C(NCCN2CCOCC2)C(=O)c2ncccc21
**A:** 1.61 µM (inactive)

**Q:** How about this compound: COc1c(Sc2c(SCSc3cnc4ccccc4c3Sc3cnc4ccccc4c3OC)cnc3ccccc23)cnc2ccccc12
**A:** > 100 µM (inactive)

---

GI50 reference
# System: NCI-H23
# assay info: NCI tumour cell line growth inhibition, 48 h
Calls of active or inactive are those of the source. Rule as the data show it: active = GI50 up to about 1.1 µM and inactive = higher.

COC1/C=C/C(C)C(C(C)C(OC)C(C)CCC(=O)C(C)C(CC(=O)O)OC)OC(=O)/C=C/C=C(\C)CC(OC)CC2=CC(=O)O[C@H](C2)C(C)C(OC)CC(OC)/C=C/C(C)C(OC)C1 (some centres undefined) : 0.879 µM (active)
NC(=S)C1=C(N)Oc2c(c(=O)oc3ccccc23)C1c1ccc(Br)cc1 (centres undefined) : > 100 µM (inactive)
COc1cc(C(c2c(O)c3ccccc3oc2=O)c2c(O)c3ccccc3oc2=O)cc(Br)c1O : 22.2 µM (inactive)
O=[N+]([O-])C(=C/c1cccs1)/C(=C\c1cccs1)[N+](=O)[O-] : 0.787 µM (active)
CNC(=O)C1(C#N)C(c2ccccc2)C(C#N)(C(=O)NC)C1c1ccccc1 (centres undefined) : > 100 µM (inactive)

Could you now look at the following compound, please?
**Q:** # value lookup — system NCI-H23, readout GI50, item NC1=CC(C(=O)c2ccncc2)c2nc3ccccc3nc21 (centres undefined)
**A:** 63 µM (inactive)

---

GI50 reference
# Test system: CAKI-1
# assay info: NCI tumour cell line growth inhibition, 48 h
Active and inactive are the calls of the source. Rule as the data show it: active = GI50 up to about 1.1 µM and inactive = higher.

Below, 5 compounds whose answers are already recorded.
CSC1=NC(=O)CCN1C1OCC(OC(C)=O)C(OC(C)=O)C1OC(C)=O (configuration not stated) : 24.7 µM (inactive)
COC(=O)c1c2c(cc3c1CC1(Cc4ccccc4C1=O)C3)CCC2 (configuration not stated) : 10.7 µM (inactive)
CN(C)CCC(/C=C/c1ccccc1)=N\Nc1ccc(Cl)c(Cl)c1 : 2.61 µM (inactive)
COc1c(Sc2c(SCSc3cnc4ccccc4c3Sc3cnc4ccccc4c3OC)cnc3ccccc23)cnc2ccccc12 : > 100 µM (inactive)
CC(C)(CO)CNc1cc(Cl)nc(N)n1 : > 100 µM (inactive)

**Q:** So what does the record say about GI50 for Cc1ccc2c(c1)SC(c1cc3c(cc1Br)OCO3)S2 (configuration not stated) ?
**A:** > 76 µM (inactive)

**Q:** How about this compound: COc1cc(/C=C/c2nc(NC(=S)Nc3ccccc3)nnc2C)cc(OC)c1OC
**A:** 29.1 µM (inactive)
